- tested.on: human GPR40 receptor (Homo sapiens)
- Sequence (O14842 whole entry): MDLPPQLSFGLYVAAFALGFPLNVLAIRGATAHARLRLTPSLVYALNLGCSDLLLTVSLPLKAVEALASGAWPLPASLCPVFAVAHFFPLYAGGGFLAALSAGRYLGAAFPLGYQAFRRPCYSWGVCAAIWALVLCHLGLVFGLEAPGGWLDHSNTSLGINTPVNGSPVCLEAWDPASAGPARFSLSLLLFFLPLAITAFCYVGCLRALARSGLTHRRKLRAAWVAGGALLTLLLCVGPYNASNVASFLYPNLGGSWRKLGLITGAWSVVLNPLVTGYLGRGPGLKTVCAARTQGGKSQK
- run.description: IP1 accumulation measurements using the IPOne assay system in 1321N1 cells stably expressing human GPR40 receptor
- experimental.setup: IP1 accumulation (HTRF), 1321N1 cells stably expressing human GPR40, 1 hour stimulation at 37° C.
- Experimental: IP1 accumulation measurements using the IPOne assay system—1321N1 cells stably expressing human GPR40 receptor (Euroscreen, Belgium) are seeded 24 h before the assay in black clear-bottom collagen-coated or white 384-well plates in culture medium containing 10% FCS, 1% Na-Pyruvate and 400 μg/mL G418. IP1 is assayed according to the Manufacturer's description (Cisbio Bioassays, France). […] After an incubation time of 1 hour at room temperature plates are measured using an EnVision™, Perkin Elmer. […]
Field: pEC50. Provide a value for each of the compounds that follow.
Bear in mind: pEC50 is minus log10 of a mol/L concentration; give just that figure.

// query Lab note: need pEC50 with human GPR40 receptor (Homo sapiens) for entry Cn1ncc2c(-c3ccc(F)c4c3CC[C@H]4Oc3ccc([C@H]4C[C@@H]4C(=O)O)cc3)cccc21 [Example 59] , please look it up.
// result 7.77

// query Try this compound too: COc1cc(O[C@@H]2CCc3c(OC(F)(F)F)cccc32)ccc1[C@@H]1C[C@H]1C(=O)O [Example 8]
// result 6.39

// query Try this compound too: Cn1ccc2cccc(-c3ccc(F)c4c3CC[C@H]4Oc3ccc([C@H]4C[C@@H]4C(=O)O)cc3)c21 [Example 60]
// result 8.52

// query Try this compound too: Cc1cc(-c2nnnn2C)cc(C)c1-c1ccc(F)c2c1CC[C@H]2Oc1ccc([C@H]2C[C@@H]2C(=O)O)cc1 [Example 44]
// result 7.92

// query Try this compound too: Cc1cc(OC(C)(C)CO)cc(C)c1-c1ccc(F)c2c1CC[C@H]2Oc1ccc([C@H]2C[C@@H]2C(=O)O)cc1 [Example 26]
// result 8.10

// query Try this compound too: Cc1cc(OCC2(O)CCS(=O)(=O)CC2)cc(C)c1-c1ccc(F)c2c1CC[C@H]2Oc1ccc([C@H]2C[C@@H]2C(=O)O)cc1 [Example 39]
// result 8.22
